- Target under test: Human 5-HT Transporter (Homo sapiens)
- Construct: endogenous in cells; host or cells: Jar cells (human carcinoma), treated with staurosporine
- Sequence (P31645 whole entry): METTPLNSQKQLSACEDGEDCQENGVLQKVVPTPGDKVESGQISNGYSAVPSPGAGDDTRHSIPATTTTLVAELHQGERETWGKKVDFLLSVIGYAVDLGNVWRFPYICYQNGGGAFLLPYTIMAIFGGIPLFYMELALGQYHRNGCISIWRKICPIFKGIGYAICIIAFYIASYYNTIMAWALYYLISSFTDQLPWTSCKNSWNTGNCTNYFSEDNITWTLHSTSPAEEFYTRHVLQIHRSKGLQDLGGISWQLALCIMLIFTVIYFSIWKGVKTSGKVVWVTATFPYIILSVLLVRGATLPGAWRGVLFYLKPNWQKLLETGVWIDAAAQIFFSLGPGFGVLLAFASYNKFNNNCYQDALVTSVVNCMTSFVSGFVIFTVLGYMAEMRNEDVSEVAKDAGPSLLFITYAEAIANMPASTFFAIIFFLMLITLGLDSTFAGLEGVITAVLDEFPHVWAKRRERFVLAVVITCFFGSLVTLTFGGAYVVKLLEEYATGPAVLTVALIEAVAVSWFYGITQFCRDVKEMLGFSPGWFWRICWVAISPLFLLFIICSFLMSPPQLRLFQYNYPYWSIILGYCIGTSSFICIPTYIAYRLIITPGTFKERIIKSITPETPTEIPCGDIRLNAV
- Test summary: Inhibition of 3H-5-HT Uptake by cells Possessing the Human 5-HT Transporter (HC 5HT Transporter)
- Format: cell-based
- Details: Jar cells, 3H-5-HT uptake; read-out: HC 5HT Transporter IC50
Attribute measured: IC50 (nM)

Here's what some known entries look like.
INSERT INTO results (compound, test_value) VALUES
  ('Cn1cc(C2CCN(CCn3nnc4ccccc4c3=O)CC2)c2ccccc21 [Example 18]', 231),
  ('O=c1c2cc(Cl)ccc2ncn1CCCN1CC=C(c2c[nH]c3ccccc23)CC1 [Example 10]', 268),
  ('COc1cc2ncn(CCN3CCC(c4c[nH]c5ccccc45)CC3)c(=O)c2cc1OC [Example 2]', 273);

P = O=c1c2ccccc2ncn1CCN1CCC(c2c[nH]c3ccccc23)CC1 [Example 13]
Q = O=c1c2ccccc2nnn1CCN1CCC(c2c[nH]c3ccccc23)CC1 [Example 17]
In: P or Q : whose IC50 is greater? # answer = label of selected item
Out: P
(P: 651 nM, Q: 190 nM)
